Target: CDK-2 (Homo sapiens, UniProt P24941)
pIC50: −log10 of the molar value.
Provide the reported pIC50 of each item.

# COMPOUND, MEASURED_TARGET, pIC50
records = [
    ("NS(=O)(=O)c1ccc(NC(=O)c2ccc(C(=O)Nc3ccc(-n4cncn4)cc3)s2)cc1", "CDK-2 (Homo sapiens, UniProt P24941)", "≤ 4.40"),
]

I would be grateful if you could provide pIC50 for each of the following entries.
1. Cc1ccccc1C(=O)Nc1ccc(C(=O)Nc2ccc(-n3cncn3)cc2)s1
2. Cn1cnc(CCNC(=O)c2ccc(C(=O)Nc3ccc(-n4cncn4)cc3)s2)c1
3. Cc1cc(CN(C)C)ccc1NC(=O)c1ccc(C(=O)Nc2ccc(-n3cncn3)c(F)c2)s1
4. Nc1ccc(CNC(=O)c2ccc(C(=O)Nc3ccc(-n4cncn4)cc3)s2)cn1
5. C[C@@H](NC(=O)c1ccc(C(=O)Nc2ccc(-n3cncn3)cc2)s1)C1CCCCC1
6. COc1ccc(NC(=O)c2ccc(C(=O)Nc3ccc(Cn4ccnc4)cc3)s2)c(C)c1

Response line:
["≥ 6.00", "≤ 4.40", "4.40 to 6.00", "≤ 4.40", "≤ 4.40", "≤ 4.40"]

I would be grateful if you could provide pIC50 for each of the following entries.
1. COc1ccc(NC(=O)c2ccc(C(=O)Nc3ccc(-n4cncn4)c(F)c3)o2)c(C)c1
2. Cc1cc(C)nc(NC(=O)c2ccc(C(=O)Nc3ccc(-n4cncn4)cc3)s2)c1
3. COc1ccc(NC(=O)c2ccc(C(=O)N3CCC(Oc4cnccn4)CC3)s2)c(C)c1
4. O=C(Nc1ccc(-n2cncn2)c(F)c1)c1ccc(C(=O)Nc2ccccc2Oc2ccccc2)s1

Response line:
1. ≥ 6.00
2. ≤ 4.40
3. 4.40 to 6.00
4. ≤ 4.40
